biological target: Inhibitor of nuclear factor kappa-B kinase subunit beta (Homo sapiens, UniProt O14920); assay: Inhibition of IKKbeta (unknown origin)
pIC50: −log10 of the molar value.
reportedProperty: pIC50

- Nc1ccccc1Oc1ccc(-c2ccnc(Nc3ccc(Cl)cc3)n2)cc1: 4.47
- COc1ccc(Nc2nccc(-c3ccc(Oc4ccccc4N)cc3)n2)cc1: 4.92
- N#Cc1ccc(-c2ccnc(Nc3ccc(S(N)(=O)=O)cc3)n2)cc1: 7.24
- CNS(=O)(=O)c1ccc(Nc2nccc(-c3ccc(Oc4ccccc4[N+](=O)[O-])cc3)n2)cc1: 5.96
- Nc1ccccc1Oc1ccc(-c2ccnc(Nc3ccccc3)n2)cc1: 4.93
- Nc1ccc(-c2ccnc(Nc3ccc(S(N)(=O)=O)cc3)n2)cc1: 7.39
- N#Cc1ccc(Nc2nccc(-c3ccc(Oc4ccccc4N)cc3)n2)cc1: 5.21
- NS(=O)(=O)c1ccc(Nc2nccc(-c3ccc(Oc4ccccc4[N+](=O)[O-])cc3)n2)cc1: 7.47
- Nc1ccc(-c2ccnc(Nc3ccc(S(=O)(=O)NCCO)cc3)n2)cc1: 7.28

====

Entries annotated with measured logD
experiment: Lipophilicity, logD of the compound at pH 7.4; format: physicochemical; details: buffer
reportedProperty: logD

* N#Cc1cccc(-c2ccnc(Nc3ccc(S(=O)(=O)NCCO)cc3)n2)c1 | 1.49
* Nc1ccccc1Oc1ccc(-c2ccnc(Nc3ccc(S(N)(=O)=O)cc3)n2)cc1 | 3.29
* Nc1ccc(-c2ccnc(Nc3ccc(S(=O)(=O)NCCO)cc3)n2)cc1 | 0.58
* N#Cc1ccc(-c2ccnc(Nc3ccc(S(N)(=O)=O)cc3)n2)cc1 | 3.81
* NCCOc1ccc(-c2ccnc(Nc3ccc(S(N)(=O)=O)cc3)n2)cc1 | 1.39

====

Target: Inhibitor of nuclear factor kappa-B kinase subunit beta (Homo sapiens)
Sequence (O14920 whole entry): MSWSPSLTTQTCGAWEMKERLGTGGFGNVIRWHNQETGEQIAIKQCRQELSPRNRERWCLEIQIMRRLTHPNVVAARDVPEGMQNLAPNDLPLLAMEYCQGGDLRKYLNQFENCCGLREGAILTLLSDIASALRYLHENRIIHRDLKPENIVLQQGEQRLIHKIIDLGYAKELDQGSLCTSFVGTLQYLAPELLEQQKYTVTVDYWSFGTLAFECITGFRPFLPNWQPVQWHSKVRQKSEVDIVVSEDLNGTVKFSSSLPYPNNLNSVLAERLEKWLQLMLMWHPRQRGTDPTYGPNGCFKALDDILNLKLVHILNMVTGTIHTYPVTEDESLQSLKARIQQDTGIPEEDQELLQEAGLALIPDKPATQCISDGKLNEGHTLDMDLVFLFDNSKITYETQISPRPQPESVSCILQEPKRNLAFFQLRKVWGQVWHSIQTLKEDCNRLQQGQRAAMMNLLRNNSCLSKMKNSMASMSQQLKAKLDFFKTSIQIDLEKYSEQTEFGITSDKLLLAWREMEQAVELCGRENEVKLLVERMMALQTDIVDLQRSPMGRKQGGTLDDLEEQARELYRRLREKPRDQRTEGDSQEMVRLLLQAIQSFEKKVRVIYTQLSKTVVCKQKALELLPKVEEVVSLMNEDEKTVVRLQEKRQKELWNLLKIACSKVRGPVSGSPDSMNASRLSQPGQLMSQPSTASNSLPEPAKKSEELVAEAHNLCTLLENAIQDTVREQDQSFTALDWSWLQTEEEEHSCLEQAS
Test: Inhibition of IKKbeta (unknown origin)
pIC50: −log10 of the molar value.
Entries annotated with measured pIC50
reportedProperty: pIC50

- Nc1ccccc1Oc1ccc(-c2ccnc(Nc3cccc(S(N)(=O)=O)c3)n2)cc1: 5.80
- NS(=O)(=O)c1ccc(Nc2nccc(-c3ccc(Cl)cc3)n2)cc1: 7.72
- NCCOc1ccc(-c2ccnc(Nc3ccc(S(N)(=O)=O)cc3)n2)cc1: 7.19
- Nc1ccccc1Oc1ccc(-c2ccnc(Nc3ccc(S(=O)(=O)Nc4nccs4)cc3)n2)cc1: 5.96
- Nc1ccccc1Oc1ccc(-c2ccnc(Nc3ccc4ncsc4c3)n2)cc1: 5.34
- CC(=O)c1ccc(Nc2nccc(-c3ccc(Oc4ccccc4N)cc3)n2)cc1: 5.09
- CS(=O)(=O)c1ccc(Nc2nccc(-c3ccc(Oc4ccccc4N)cc3)n2)cc1: 5.57
- NC(=O)c1ccc(Nc2nccc(-c3ccc(Oc4ccccc4N)cc3)n2)cc1: 4.85

The origin of these recorded values is ChEMBL document CHEMBL3872215.
